assay-target: human ether-à-go-go-related gene (hERG) potassium channel (human);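 further: peak tail current of the secondary pulse compared with the same well before compound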
Sequence (Q12809 whole entry, looked up): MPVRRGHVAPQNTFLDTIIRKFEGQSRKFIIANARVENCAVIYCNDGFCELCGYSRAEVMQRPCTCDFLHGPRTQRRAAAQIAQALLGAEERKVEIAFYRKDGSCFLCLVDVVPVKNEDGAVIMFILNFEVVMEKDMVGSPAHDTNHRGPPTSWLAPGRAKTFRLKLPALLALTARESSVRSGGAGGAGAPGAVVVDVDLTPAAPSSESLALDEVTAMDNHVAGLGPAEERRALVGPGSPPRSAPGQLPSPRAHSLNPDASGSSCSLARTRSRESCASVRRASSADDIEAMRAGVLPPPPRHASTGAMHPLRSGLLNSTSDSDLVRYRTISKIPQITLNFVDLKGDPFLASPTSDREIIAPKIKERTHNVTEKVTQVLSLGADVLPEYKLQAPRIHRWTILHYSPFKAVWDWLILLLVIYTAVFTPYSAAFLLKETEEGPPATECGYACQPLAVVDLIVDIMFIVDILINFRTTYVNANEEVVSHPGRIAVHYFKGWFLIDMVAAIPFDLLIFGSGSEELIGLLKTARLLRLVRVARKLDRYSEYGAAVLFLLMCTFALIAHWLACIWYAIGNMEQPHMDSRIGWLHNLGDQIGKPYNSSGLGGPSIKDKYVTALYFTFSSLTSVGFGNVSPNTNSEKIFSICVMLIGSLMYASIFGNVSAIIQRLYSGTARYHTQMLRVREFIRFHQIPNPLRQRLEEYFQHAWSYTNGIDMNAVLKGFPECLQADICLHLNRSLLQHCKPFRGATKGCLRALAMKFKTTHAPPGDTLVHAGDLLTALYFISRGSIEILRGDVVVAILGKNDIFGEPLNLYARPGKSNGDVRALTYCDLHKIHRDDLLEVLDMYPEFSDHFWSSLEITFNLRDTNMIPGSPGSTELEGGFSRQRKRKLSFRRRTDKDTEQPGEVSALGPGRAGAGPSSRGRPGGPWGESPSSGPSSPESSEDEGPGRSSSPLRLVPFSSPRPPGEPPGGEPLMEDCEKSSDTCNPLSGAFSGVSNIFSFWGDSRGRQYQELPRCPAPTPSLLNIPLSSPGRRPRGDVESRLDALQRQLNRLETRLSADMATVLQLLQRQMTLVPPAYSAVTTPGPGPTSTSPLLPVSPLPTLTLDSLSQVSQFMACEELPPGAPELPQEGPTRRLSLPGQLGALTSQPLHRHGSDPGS
method: primary screen, population patch clamp on CHO cells stably expressing hERG; higher = less effect of the substance
Screen size: about 310,000 compounds; about 14,000 (4.5%) showed an effect of 50% or more. The effect is printed as a negative number. Only a selection was taken, and strong results are over-represented in it overall.
assay-readout: hERG current change (%, negative = inhibition) at 10uM (%)
Could you give me the number in %? Just the number is fine.

Look over these answered cases.
CCOc1ccc(/C=N/Nc2ccccc2)cc1 : 17.6
Cc1ccc(C(CNS(=O)(=O)c2ccc(Br)cc2)N2CCN(C)CC2)cc1 (centres unmarked) : -72.4
CCOc1ccc(C(=O)O/N=C(\N)c2ccc([N+](=O)[O-])cc2)cc1OCC : -6.93
O=C(c1cccc([N+](=O)[O-])c1)N1CCN(c2ccc(Cl)cc2)CC1 : -41.1
COc1ccccc1N1CCN(C(=O)c2ccc(Br)s2)CC1.Cl : -46.3
CSCc1ccc(C(=O)N2CCC(CCC(=O)N(C)Cc3ccccc3)CC2)o1 : -50.7
Cc1cccc(N2CCN(C(=O)c3ccc(CNc4c(N5CCC(C)CC5)c(=O)c4=O)cc3)CC2C)c1 (centres unmarked) : -10.4
COc1ccc(CCNC(=O)c2cc3c(=O)n4ccccc4nc3n(CCCN3CCOCC3)c2=N)cc1OC : -75.1

Query: Please indicate hERG current change (%, negative = inhibition) at 10uM recorded for OCC(O)C1OC(Nc2ccc(Br)cc2)C(O)C1O (centres unmarked)
Response: 16.7

Query: Please indicate hERG current change (%, negative = inhibition) at 10uM recorded for "Cc1c(C(C)(C)O)[nH]c2ccc(C#N)cc12"
Response: 26.4

Query: Please indicate hERG current change (%, negative = inhibition) at 10uM recorded for "COc1ccc(Cn2c(=S)[nH]c3cc(C(=O)NCCCN4CCOCC4)ccc3c2=O)cc1"
Response: 24.1

Query: Please indicate hERG current change (%, negative = inhibition) at 10uM recorded for "CN(Cc1ccccc1)C(=O)CCC1CCN(C(=O)c2ccccc2C(F)(F)F)CC1"
Response: 8.38

Query: Please indicate hERG current change (%, negative = inhibition) at 10uM recorded for "COc1ccc(CCNC(=O)c2cc3c(=O)n4ccccc4nc3n(CCCN3CCOCC3)c2=N)cc1"
Response: -79

Query: Please indicate hERG current change (%, negative = inhibition) at 10uM recorded for "COc1ccc(CCn2c(=O)[nH]c3cc(C(=O)NCCCN4CCOCC4)ccc3c2=O)cc1OC"
Response: 28.6
